FYI, the data here is from patent US20190177284A1.

- Test system: human Bradykinin B1 receptor (Homo sapiens)
- Sequence (P46663 1-353): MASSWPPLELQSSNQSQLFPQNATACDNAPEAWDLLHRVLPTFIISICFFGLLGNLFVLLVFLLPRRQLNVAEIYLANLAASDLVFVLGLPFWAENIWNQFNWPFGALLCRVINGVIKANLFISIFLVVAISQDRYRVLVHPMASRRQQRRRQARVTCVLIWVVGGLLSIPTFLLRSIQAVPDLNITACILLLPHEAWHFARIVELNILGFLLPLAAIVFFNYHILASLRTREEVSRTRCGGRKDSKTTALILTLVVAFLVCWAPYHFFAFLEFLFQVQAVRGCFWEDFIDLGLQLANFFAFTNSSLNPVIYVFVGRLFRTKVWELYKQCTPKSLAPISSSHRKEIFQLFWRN
- Assay protocol: Calcium flux Assay (FLIPR) with cells expressing human Bradykinin B1 receptor (hB1)
- Experimental parameters: absence of 0.1% BSA in assay buffer; CHO-K1 cell line expressing human B1 receptor; agonist Lys-(Des-Arg)-Bradykinin; read-out: hB1 free IC50
Measurement name: pIC50
Answers are plain numbers, as −log10 of the molar value.

Consider the following illustrative entries.
Output measured pIC50 for this item: `COC[C@H](C)NC(=O)c1ccc(NC(=O)C2(c3ccc(C(F)(F)F)cc3F)CC2)cc1-c1nnn[nH]1`
6.39

Please list pIC50 recorded for the compound COCC(C)OC(=O)c1ccc(NC(=O)C2(c3ccc(C(F)(F)F)cc3F)CC2)cc1-c1nnn[nH]1 (racemic)
7.89

Using the record for `O=C(OC1CCCC1)c1ccc(NC(=O)C2(c3cccc(Cl)c3)CC2)cc1-c1nnn[nH]1` , state its measured pIC50.
7.68

Kindly indicate its recorded pIC50. Item: `O=C(N[C@@H]1CCOC1)c1ccc(NC(=O)C2(c3ccc(C(F)(F)F)cc3F)CC2)cc1-c1nnn[nH]1`
5.44

Consider the following items and state reported pIC50 for each.
1. O=C(OC1CCC1)c1ccc(NC(=O)C2(c3ccc(C(F)(F)F)cc3F)CC2)cc1-c1nnn[nH]1
2. CCC(C)OC(=O)c1ccc(NC(=O)C2(c3ccc(C(F)(F)F)cc3F)CC2)cc1-c1nnn[nH]1 (racemic)

[8.70, 8.40]
